# Target: T1, Human Y5 receptor (NPY5) (human, UniProt Q15761 1-445)
# T1 construct: Full-length receptor expressed by baculovirus in Sf9 insect cells; assayed in purified Sf9 membranes, not on whole cells; also called native NPY5 receptor; hY5
# T1 sequence: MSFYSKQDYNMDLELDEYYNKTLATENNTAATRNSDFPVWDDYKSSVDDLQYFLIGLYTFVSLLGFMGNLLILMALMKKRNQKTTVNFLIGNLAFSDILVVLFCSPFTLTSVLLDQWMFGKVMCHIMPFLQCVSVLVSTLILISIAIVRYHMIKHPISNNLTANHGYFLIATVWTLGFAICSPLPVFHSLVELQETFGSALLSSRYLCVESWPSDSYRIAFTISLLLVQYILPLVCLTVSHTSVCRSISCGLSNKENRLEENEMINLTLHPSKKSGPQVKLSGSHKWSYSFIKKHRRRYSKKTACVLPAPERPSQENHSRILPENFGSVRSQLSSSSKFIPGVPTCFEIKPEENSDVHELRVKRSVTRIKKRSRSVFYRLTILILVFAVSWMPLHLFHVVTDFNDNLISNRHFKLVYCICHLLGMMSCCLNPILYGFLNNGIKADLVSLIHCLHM
# Assay protocol: displacement of 0.050 nM [125I]PYY (porcine) from Sf9 membranes, filtration
No end group written: not given here.
Measured quantity: pKi
Would you please state pKi, meaning minus log10 of the concentration in mol/L, as a bare number?

Req: Would you mind telling me what pKi value was observed for PAEDMARYYSALRHYINLITRQRY (peptide, UniProt P01303 41-64, looked up, ends and bridges not checked, range 13-36; also called HNPY 13-36) [human NPY 13-36] ?
Resp: 7.70
